# Target of assay: HIF-2α (Homo sapiens, UniProt Q99814)
# Sequence (Q99814 whole entry): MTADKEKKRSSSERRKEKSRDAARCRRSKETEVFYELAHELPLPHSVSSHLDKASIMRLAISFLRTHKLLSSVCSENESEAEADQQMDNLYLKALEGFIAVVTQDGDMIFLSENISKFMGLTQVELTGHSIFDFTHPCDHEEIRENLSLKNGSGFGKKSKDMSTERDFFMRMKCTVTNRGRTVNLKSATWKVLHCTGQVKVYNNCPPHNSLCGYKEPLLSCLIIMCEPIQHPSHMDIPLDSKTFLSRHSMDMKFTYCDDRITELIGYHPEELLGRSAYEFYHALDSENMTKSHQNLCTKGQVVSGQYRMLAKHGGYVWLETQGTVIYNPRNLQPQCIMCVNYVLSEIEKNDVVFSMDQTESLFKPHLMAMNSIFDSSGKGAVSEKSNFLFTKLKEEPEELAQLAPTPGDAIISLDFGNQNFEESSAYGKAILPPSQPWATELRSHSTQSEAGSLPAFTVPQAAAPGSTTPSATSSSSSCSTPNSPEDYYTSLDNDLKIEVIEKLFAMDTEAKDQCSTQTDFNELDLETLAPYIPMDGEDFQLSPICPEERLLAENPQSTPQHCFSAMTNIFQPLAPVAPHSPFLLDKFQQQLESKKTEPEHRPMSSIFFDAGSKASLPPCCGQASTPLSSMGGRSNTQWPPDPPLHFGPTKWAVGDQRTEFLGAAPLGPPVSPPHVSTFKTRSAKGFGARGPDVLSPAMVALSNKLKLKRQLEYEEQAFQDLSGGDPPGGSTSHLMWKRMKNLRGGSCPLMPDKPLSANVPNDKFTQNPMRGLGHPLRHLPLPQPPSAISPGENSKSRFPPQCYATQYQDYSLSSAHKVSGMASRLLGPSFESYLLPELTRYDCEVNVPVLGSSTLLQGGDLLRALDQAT
# Method: HIF-2α Luciferase Reporter Assay (serum free) in HIF-Luc-786-0 cells
# Type: cell-based
# Test context: Opti-MEM, 786-0 reporter cells, 20 hours incubation
Test readout: IC50

The examples below pair each entry with its known result.
[
  {
    "Compound": "O=S1(=O)CC(Cn2nc(C(F)(F)F)c3c2[C@@H](F)C(F)(F)[C@H]3O)C1 (single isomer, unassigned) [144/145 DIAST-2]",
    "Target of assay": "HIF-2α (Homo sapiens, UniProt Q99814)",
    "IC50": "100 to 1000 nM"
  },
  {
    "Compound": "O=S1(=O)CC(Cn2nc(C(F)(F)F)c3c2CC(F)(F)[C@H]3O)C1 [Example 57]",
    "Target of assay": "HIF-2α (Homo sapiens, UniProt Q99814)",
    "IC50": "100 to 1000 nM"
  },
  {
    "Compound": "O[C@H]1c2c(C(F)(F)F)nn([C@@H]3CC[C@@H](F)[C@@H](F)C3)c2[C@@H](F)[C@H]1F (single isomer, unassigned) [141/142 DIAST-1]",
    "Target of assay": "HIF-2α (Homo sapiens, UniProt Q99814)",
    "IC50": "100 to 1000 nM"
  },
  {
    "Compound": "O[C@H]1c2c(C(F)(F)F)nn([C@H]3CCCC(F)(F)C3)c2[C@@H](F)[C@H]1F (single isomer, unassigned) [136/137 DIAST-1]",
    "Target of assay": "HIF-2α (Homo sapiens, UniProt Q99814)",
    "IC50": "< 100 nM"
  },
  {
    "Compound": "O[C@H]1c2c(C(F)(F)F)nn([C@H]3C[C@@H](COC(F)F)C3)c2CCC1(F)F [Example 105]",
    "Target of assay": "HIF-2α (Homo sapiens, UniProt Q99814)",
    "IC50": "> 1000 nM"
  }
]

Q: Return IC50 (reported value) for this compound: CC(CCn1nc(C(F)(F)F)c2c1CCC(F)(F)[C@H]2O)C(F)(F)F (stereo partly shown) [Example 38]
Result: 100 to 1000 nM

Q: Recall and state the measured IC50 for CC(C#N)CCn1nc(C(F)(F)F)c2c1CCC(F)(F)[C@H]2O (stereo partly shown) [Example 3] .
Result: 100 to 1000 nM

Each recorded value in this set is attributed to patent US12071411B2.
